biological target: Polyunsaturated fatty acid lipoxygenase ALOX15B (Homo sapiens) (UniProt O15296); experiment: qHTS Assay for Inhibitors of 15-hLO-2 (15-human lipoxygenase 2); settings: purified 15hLO-2, xylenol orange hydroperoxide absorbance; series mostly up to 57.1 µM; also: nearly all actives have a fitted effect of over 60% in size; also: potency is read from the fitted curve at half-maximal effect
Sequence (O15296 whole entry, looked up): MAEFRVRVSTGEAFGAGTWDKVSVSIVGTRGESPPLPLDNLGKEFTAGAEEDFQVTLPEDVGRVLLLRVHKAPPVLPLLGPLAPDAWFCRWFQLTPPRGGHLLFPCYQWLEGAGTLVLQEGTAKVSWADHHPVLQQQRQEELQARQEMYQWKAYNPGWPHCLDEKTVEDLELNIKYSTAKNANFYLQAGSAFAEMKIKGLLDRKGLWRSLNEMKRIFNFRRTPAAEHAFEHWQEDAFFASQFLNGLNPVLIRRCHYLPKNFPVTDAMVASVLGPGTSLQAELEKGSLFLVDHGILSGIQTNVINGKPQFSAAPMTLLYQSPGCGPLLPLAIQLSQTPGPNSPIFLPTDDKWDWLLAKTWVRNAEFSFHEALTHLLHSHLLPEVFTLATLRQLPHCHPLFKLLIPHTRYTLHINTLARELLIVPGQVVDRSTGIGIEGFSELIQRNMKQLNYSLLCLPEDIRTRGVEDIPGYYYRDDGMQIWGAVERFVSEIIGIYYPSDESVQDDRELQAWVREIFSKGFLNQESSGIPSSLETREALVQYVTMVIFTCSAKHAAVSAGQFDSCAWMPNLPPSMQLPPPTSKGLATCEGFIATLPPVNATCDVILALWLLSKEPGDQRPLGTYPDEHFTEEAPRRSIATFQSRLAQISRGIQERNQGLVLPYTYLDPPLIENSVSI
About 610 (0.55%) of roughly 110,000 compounds were called active. Inconclusive results (about 3%) are left out. This excerpt belongs to a sample that is enriched for actives.
observation-type: Potency

Examples with their reported Potency follow.
compound	result-value
Oc1cc2c(cc1O)CN(C(=S)NCCc1ccc(Cl)cc1)CCC2	12.6 µM (active)
CC(=O)N1CCN(c2ccc(NCc3ccc(C(C)C)cc3)cc2)CC1	12.6 µM (active)
CCc1c(C)[nH]c(=S)c(C#N)c1C	31.6 µM (active)

Would you mind giving Potency for every compound in the list below?
1. CCN1C(=O)/C(=C2/Sc3ccccc3N2CCCS(=O)(=O)O)SC1=S
2. O=C1Nc2ccccc2C12Nc1ccccc1S2 (configuration not stated)

RESULT:
1: 15.8 µM (active); 2: 7.94 µM (active)

Would you mind giving Potency for every compound in the list below?
1. Cc1ccnc(-n2sc3ccccc3c2=O)n1
2. COc1ccc(-c2nnc(SC(=O)N3c4ccccc4Sc4ccccc43)o2)cc1

RESULT:
1: 7.94 µM (active); 2: 10 µM (active)

###

target: Polyunsaturated fatty acid lipoxygenase ALOX15B (Homo sapiens); test: qHTS Assay for Inhibitors of 15-hLO-2 (15-human lipoxygenase 2); conditions: purified 15hLO-2, xylenol orange hydroperoxide absorbance; series mostly up to 57.1 µM; also: nearly all actives have a fitted effect of over 60% in size; as to activity change, negative = inhibition: % is scaled to controls: 0 for no effect and ±100 for the full control effect
Screen size: about 110,000 compounds; about 610 (0.55%) were called active. Another 3% or so got no clear call; they are omitted. For the sample, actives were picked, then their nearest neighbours and some compounds at random.
observation-type: activity change, negative = inhibition

Examples with their reported activity change, negative = inhibition follow.
compound	observation-type	result-value
N#CC1=C(SCc2ccc(C#N)cc2)N=C(N)C(c2nc(-c3ccccc3)cs2)C12CCCCC2 (centres undefined)	activity change, negative = inhibition	inactive
Cc1ccccc1OCC(=O)NCC(=O)OCC(=O)c1ccc2ccccc2c1	activity change, negative = inhibition	inactive
COC(=O)c1cc(NC(=O)CC2C(=O)NCCN2C(=O)c2ccc(F)cc2)cc(C(=O)OC)c1 (centres undefined)	activity change, negative = inhibition	inactive
CCC(C)N1C(=O)S/C(=C/c2ccc(Sc3nc4ccccc4[nH]3)o2)C1=O (centres undefined)	activity change, negative = inhibition	inactive
CCOC(=O)C1C/C(=C\C(C)=O)c2cccc(C(F)(F)F)c2O1 (centres undefined)	activity change, negative = inhibition	4.83% [at 0.0915 µM] (inactive)

Would you mind giving activity change, negative = inhibition for every compound in the list below?
1. CC1(C)O[C@@H]2C[C@@H]3[C@H]4C[C@@H](F)C5=CC(=O)C=C[C@]5(C)[C@@]4(F)[C@@H](O)C[C@]3(C)[C@]2(C(=O)CO)O1
2. CCOC(=O)c1c(NC(=O)CCl)sc(C(=O)N(CC)CC)c1C
3. CCOC(=O)c1c(NC(C)=O)sc2c(O)c(Br)ccc12
4. N#Cc1ccc(Oc2cc(C(F)(F)F)nc(-c3ccccn3)n2)cc1

RESULT:
["-10.6% [at 0.0915 µM] (inactive)", "inactive", "inactive", "inactive"]

Origin of the recorded values: PubChem BioAssay AID881
